Exercise: state measured Kd for each of the binders provided.
Target: T1, S. aureus DnaK (Staphylococcus aureus, UniProt P99110 1-610)
T1 construct: source: E. coli (DE3) Rosetta pLysS, purified (IMAC, TEV cleavage, second IMAC)
Test: fluorescence polarisation; direct titration: protein serially diluted twofold in 23 steps, Cf-labeled peptide added (20 µL of 40 nmol/L to 20 µL); FP-buffer 20 mmol/L Tris-HCl, 150 mmol/L KCl, 5 mmol/L MgCl2, 1 mmol/L NaN3, 2 mmol/L DTT, pH 7.5; 2 h, 28°C, dark
Conditions: both partners purified
Ends that are not written are not given here. Cf = 5(6)-carboxyfluorescein label
One number for each entry, in µM.

Cf-RPFFPRPYLPLPRPPRPVR (source: synthetic peptide, in-house (Fmoc/tBu chemistry on Rink amide resin), RP-HPLC purified) [Cf-peptide 102] ... 1.6

Consider now this further binder.
Entry Cf-RPDKPRPYLPRPRPPRPVR (also called 5(6)-carboxyfluorescein-labeled ARV-1502; source: synthetic peptide, in-house (Fmoc/tBu chemistry on Rink amide resin), RP-HPLC purified) [Cf-ARV-1502] ; Kd = 25.1

Just for reference, paper PMC8864165 is where these values come from.
